Task for the reader: assign each of the following binders its reported Kd.
Tested on: T1, S100B (human, UniProt P04271 1-92)
T1 chain: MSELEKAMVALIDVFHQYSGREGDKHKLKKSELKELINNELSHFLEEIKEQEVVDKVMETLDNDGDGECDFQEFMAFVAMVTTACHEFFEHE
Protocol: FP; competitive
Give bare numbers, in nM.

>  <Binder>
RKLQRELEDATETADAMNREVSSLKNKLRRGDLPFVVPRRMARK [NMIIA (1894-1937) peptide]

>  <Kd (nM)>
2900

$$$$

We next turn to a different binder, shown below.
### Prompt Provide measured Kd value, entry: MAATAAAVVAEEDTELRDLLVQTLENSGVLNRIKAELRAAVFLALEEQ [FOP (1-48) peptide]
### Response 1200
